- Tested on: MOLM-13 cells
- measurement_protocol: MOLM-13 Cell Proliferation Assay (indicator of DHODH inhibition)
- Assay type: cell-based
- condition_notes: Homo sapiens, 72 Hours of culture, CellTiter-Glo, no uridine
- Method: The following assay was conducted to measure proliferation of MOLM-13 cells in the presence of each compound studied. […] On day 1, Log-phase growing Molm-13 Cells were counted and diluted to 10^5 cells/mL in RPMI 1640 medium+10% FBS • 3. […] The plates were then read by ViewLux (Speed-fast, Gain-High, Bining-1X, 5 seconds).
assay_readout: IC50

{"molecule": "FC(F)(F)c1ncnc(N2CCc3c([nH]c4ccc(-n5nccn5)cc34)[C@@H]2c2ccc(N3CCOCC3)nc2)n1 [Compound 498]", "recorded_value": "0.7 nM"}
{"molecule": "CCCCN(CCCC)c1nc(C)nc(N2CCc3c([nH]c4ccc(Cl)cc34)C2c2cnc(N3CCOCC3)nc2)n1 (stereo not drawn) [Compound 315]", "recorded_value": "11.7 nM"}
{"molecule": "CN(C)c1ccc(C2c3[nH]c4cc(F)c(Cl)cc4c3CCN2c2nccc(C(F)(F)F)n2)c(F)n1 (stereo not drawn) [Compound 208]", "recorded_value": "2.2 nM"}

Hey, just so you know, these numbers are from patent US20250186437A1.
